experimental-details: Kinetic solubility at pH 6.5 by nephelometry
Type: physicochemical
measurement-parameters: pH 6.5 phosphate buffer, 1% DMSO, solubility range by nephelometry
measurement-type: Kinetic Sol6.5

> print(dat)
                smiles.representation  measurement.type           value
1       O=C1Nc2ncccc2C(=O)CCc2ccccc21    Kinetic Sol6.5      >100 µg/mL
2      O=C1CCOc2ccccc2C(=O)Nc2ccccc21    Kinetic Sol6.5      >100 µg/mL
3       O=C1CCc2cccnc2C(=O)Nc2ccccc21    Kinetic Sol6.5      >100 µg/mL
4  O=C1CCc2ccccc2C(=O)N2CCCc3cccc1c32    Kinetic Sol6.5  25 to 50 µg/mL

###

# maps each entry to its chromatographic logD
experimental-details: Chromatographic LogD7.4
Assay type: physicochemical
measurement-parameters: gradient HPLC, Phenomenex Synergi Hydro-RP column, pH 7.4
measurement-type: chromatographic logD

> print(dat)
                       smiles.representation      measurement.type  value.relation.sign  value
 1             O=C1Nc2ccccc2C(=O)CCc2ccccc21  chromatographic logD                    =    1.9
 2          O=C1Nc2ccccc2C(=O)CCc2cc(O)ccc21  chromatographic logD                    =    1.1
 3       COc1ccc2c(c1)C(=O)CCc1ccccc1C(=O)N2  chromatographic logD                    =    2.1
 4   O=C(O)c1ccc2c(c1)C(=O)CCc1ccccc1C(=O)N2  chromatographic logD                    <      0
 5  O=C1Nc2ccc(C(=O)N3CCOCC3)cc2C(=O)CCc2ccccc21  chromatographic logD                    =    1.3
 6          O=C1Nc2ccccc2C(=O)CCc2cc(F)ccc21  chromatographic logD                    =    2.1
 7          CN1C(=O)c2ccccc2CCC(=O)c2ccccc21  chromatographic logD                    =    2.4
 8        N#Cc1ccc2c(c1)CCC(=O)c1ccccc1NC2=O  chromatographic logD                    =      2
 9          O=C1Nc2ccc(F)cc2C(=O)CCc2ccccc21  chromatographic logD                    =    2.2
10  CS(=O)(=O)c1ccc2c(c1)C(=O)CCc1ccccc1C(=O)N2  chromatographic logD                    =    1.6
11          O=C1Nc2ccccc2C(=O)CCc2ccc(F)cc21  chromatographic logD                    =    2.1
12                 O=C1Nc2ccccc2CCCc2ccccc21  chromatographic logD                    =    2.6
13          O=C1Nc2ccccc2C(=O)CCc2ccc(O)cc21  chromatographic logD                    =    1.2
14             O=C1Oc2ccccc2C(=O)CCc2ccccc21  chromatographic logD                    =    3.7
15   O=C1Nc2ccc(C(F)(F)F)cc2C(=O)CCc2ccccc21  chromatographic logD                    =      3

###

experimental-details: In vitro intrinsic clearance in human liver microsomes
Assay type: in vitro ADME
measurement-parameters: human, liver microsomes, h CLint
measurement-type: microsomal CLint

> print(dat)
                     smiles.representation  measurement.type               value
1            O=C1Nc2ccccc2C(=O)CCc2ccccc21  microsomal CLint  20 to 40 µL/min/mg
2  NC(=O)c1ccc2c(c1)C(=O)CCc1ccccc1C(=O)N2  microsomal CLint       < 7 µL/min/mg
3       N#Cc1ccc2c(c1)CCC(=O)c1ccccc1NC2=O  microsomal CLint       < 7 µL/min/mg
4           O=C1CCc2ccccc2CC(=O)c2ccccc2N1  microsomal CLint       < 7 µL/min/mg
